The measurements presented in this section are drawn from paper PMC7291367.

protocol: Plasma stability assay (UPLC/MS)
Assay type: in vitro ADME
cond: rat, plasma, 37°C, incubation up to 24 h
Numbered stars: 1 amine (or outer) side, 2 acyl side, 3 side chain; on linkers, the order of the positions; unused ones are H or OH. Square brackets hold non-standard residues; d marks the D form. Peptide text beside a SMILES is read from it. X1 = NCCCC[C@H](N)CN([C@@H](CCCCN)C(=O)[*:2])[*:1]; Ala(SiMe3) = C[Si](C)(C)C[C@H](N)C(=O)O; Dmt = Cc1cc(O)cc(C)c1C[C@H](N)C(=O)O; Tle = CC(C)(C)[C@H](N)C(=O)O
Provide the recorded half-life at 0.156 mM for the entries that follow.

Exercise: Please give the measured half-life at 0.156 mM for this compound: CC[C@H](C)[C@H](NC(=O)[C@H](CCCCN)NC(=O)[C@@H]1CCCN1C(=O)[C@H](CCCCN)NC[C@@H](N)CCCCN)C(=O)N[C@@H](CC(C)C)C(=O)O [Compound 10, H-LysΨ[CH2NH]Lys-Pro-Lys-Ile-Leu-OH] (H-[X1]PKIL-OH)
Key: 5 h

Exercise: Please give the measured half-life at 0.156 mM for this compound: CC[C@H](C)[C@H](NC(=O)[C@H](Cc1ccc(O)cc1)NC(=O)[C@@H]1CCCN1C(=O)[C@H](CCCCN)NC[C@@H](N)CCCCN)C(=O)N[C@@H](C[Si](C)(C)C)C(=O)O [Compound 4, H-Lysψ[CH2NH]Lys-Pro-Tyr-Ile-TMSAla-OH] (H-[X1]PYI[Ala(SiMe3)]-OH)
Key: 2 h

Exercise: Please give the measured half-life at 0.156 mM for this compound: CC[C@H](C)[C@H](NC(=O)[C@@H](Cc1c[nH]c2ccccc12)NC(=O)[C@@H]1CCCN1C(=O)[C@H](CCCCN)NC[C@@H](N)CCCCN)C(=O)N[C@@H](C[Si](C)(C)C)C(=O)O [Compound 14, H-Lysψ[CH2NH]Lys-Pro-D-Trp-Ile-TMSAla-OH] (H-[X1]P[dW]I[Ala(SiMe3)]-OH)
Key: > 20 h

Exercise: Please give the measured half-life at 0.156 mM for this compound: Cc1cc(O)cc(C)c1C[C@H](NC(=O)[C@@H]1CCCN1C(=O)[C@H](CCCCN)NC[C@@H](N)CCCCN)C(=O)N[C@H](C(=O)N[C@@H](CC(C)C)C(=O)O)C(C)(C)C [Compound 16, H-Lysψ[CH2NH]Lys-Pro-Dmt-Tle-Leu-OH] (H-[X1]P[Dmt][Tle]L-OH)
Key: > 20 h

Exercise: Please give the measured half-life at 0.156 mM for this compound: CC[C@H](C)[C@H](NC(=O)[C@H](Cc1ccc(O)cc1)NC(=O)C1C[Si](C)(C)CN1C(=O)[C@H](CCCCN)NC[C@@H](N)CCCCN)C(=O)N[C@@H](C[Si](C)(C)C)C(=O)O (stereo partly drawn) [Compound 8, H-LysΨ[CH2NH]Lys-Sip-Tyr-Ile-TMSAla-OH]
Key: > 20 h

Exercise: Please give the measured half-life at 0.156 mM for this compound: CC[C@H](C)[C@H](NC(=O)[C@H](Cc1ccc(O)cc1)NC(=O)C1C[Si](C)(C)CN1C(=O)[C@H](CCCCN)NC[C@@H](N)CCCCN)C(=O)N[C@@H](CC(C)C)C(=O)O (stereo partly drawn) [Compound 6, H-Lysψ[CH2NH]Lys-Sip-Tyr-Ile-Leu-OH]
Key: 22 h
